# Test Name: Pharmacokinetics in rats
# Format: in vivo
# Particulars: male, Sprague-Dawley, rat, plasma, iv, 10 mg/kg
Measured Attribute: concentration at 48 h

INSERT INTO assay_data (compound, measured_attribute, observed_value) VALUES
  ('Nc1nc2c(ccc3ccccc32)s1 [SKA-31, naphtho[1,2-d]thiazol-2-ylamine]', 'concentration at 48 h', '2000 nM');

====

# Measured Target: Nav1.2 (Mus musculus)
# Sequence (B1AWN6 whole entry): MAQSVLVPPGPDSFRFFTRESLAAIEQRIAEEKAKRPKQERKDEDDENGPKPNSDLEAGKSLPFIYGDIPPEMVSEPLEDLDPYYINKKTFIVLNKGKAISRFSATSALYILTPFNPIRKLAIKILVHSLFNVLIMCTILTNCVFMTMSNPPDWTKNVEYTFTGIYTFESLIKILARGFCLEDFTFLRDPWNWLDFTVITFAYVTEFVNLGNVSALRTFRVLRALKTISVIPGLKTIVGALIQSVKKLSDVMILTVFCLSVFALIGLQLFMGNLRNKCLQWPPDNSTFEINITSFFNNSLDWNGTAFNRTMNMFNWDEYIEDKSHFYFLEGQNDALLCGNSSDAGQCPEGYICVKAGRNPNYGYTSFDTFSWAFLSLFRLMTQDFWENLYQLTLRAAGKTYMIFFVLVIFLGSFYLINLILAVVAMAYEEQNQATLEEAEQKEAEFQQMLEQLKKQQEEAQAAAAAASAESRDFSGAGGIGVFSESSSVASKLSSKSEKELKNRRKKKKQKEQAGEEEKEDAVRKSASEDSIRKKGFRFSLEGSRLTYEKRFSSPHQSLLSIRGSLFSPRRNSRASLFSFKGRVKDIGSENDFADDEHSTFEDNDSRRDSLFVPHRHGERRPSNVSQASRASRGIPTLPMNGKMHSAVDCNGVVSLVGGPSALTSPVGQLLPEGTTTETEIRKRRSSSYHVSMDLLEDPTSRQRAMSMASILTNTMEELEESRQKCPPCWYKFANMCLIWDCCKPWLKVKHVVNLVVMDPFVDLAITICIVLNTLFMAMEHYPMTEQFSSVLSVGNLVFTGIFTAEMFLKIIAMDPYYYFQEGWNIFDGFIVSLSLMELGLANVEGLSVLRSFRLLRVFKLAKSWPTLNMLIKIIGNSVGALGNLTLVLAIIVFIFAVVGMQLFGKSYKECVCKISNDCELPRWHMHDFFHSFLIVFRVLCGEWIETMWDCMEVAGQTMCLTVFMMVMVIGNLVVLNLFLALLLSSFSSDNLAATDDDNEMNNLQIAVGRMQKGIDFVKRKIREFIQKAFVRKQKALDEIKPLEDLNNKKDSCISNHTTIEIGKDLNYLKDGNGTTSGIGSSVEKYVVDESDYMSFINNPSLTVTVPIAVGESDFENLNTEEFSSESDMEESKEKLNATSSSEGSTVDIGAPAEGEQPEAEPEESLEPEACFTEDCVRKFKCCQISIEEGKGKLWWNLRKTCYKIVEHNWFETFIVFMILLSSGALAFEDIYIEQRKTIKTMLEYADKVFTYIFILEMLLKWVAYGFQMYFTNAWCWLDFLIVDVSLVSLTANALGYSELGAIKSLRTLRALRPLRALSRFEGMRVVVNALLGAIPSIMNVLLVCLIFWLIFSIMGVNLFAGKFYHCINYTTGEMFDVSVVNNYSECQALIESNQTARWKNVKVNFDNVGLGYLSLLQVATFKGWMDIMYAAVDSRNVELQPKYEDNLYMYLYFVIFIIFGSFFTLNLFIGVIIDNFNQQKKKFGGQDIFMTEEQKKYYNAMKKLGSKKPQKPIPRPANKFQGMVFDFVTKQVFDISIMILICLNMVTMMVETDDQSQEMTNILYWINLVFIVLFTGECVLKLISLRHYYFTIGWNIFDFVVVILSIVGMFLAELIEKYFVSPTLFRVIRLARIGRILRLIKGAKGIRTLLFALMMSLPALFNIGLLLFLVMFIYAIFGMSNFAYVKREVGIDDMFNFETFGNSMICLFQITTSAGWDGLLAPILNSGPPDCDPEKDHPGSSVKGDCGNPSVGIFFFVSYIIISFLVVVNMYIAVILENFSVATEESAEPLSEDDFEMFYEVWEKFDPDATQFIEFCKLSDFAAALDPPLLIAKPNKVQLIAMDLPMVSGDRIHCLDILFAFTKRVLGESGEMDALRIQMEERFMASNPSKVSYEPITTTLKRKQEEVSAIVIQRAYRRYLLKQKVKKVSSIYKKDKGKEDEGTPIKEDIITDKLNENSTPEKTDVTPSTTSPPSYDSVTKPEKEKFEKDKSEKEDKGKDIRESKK
# Test Name: Selectivity patch-clamp, Nav1.2 currents from N1E-115 cells
# Type: cell-based
Property: IC50; scope: individual molecules
Measured Attribute: IC50

INSERT INTO measurements (molecule, measured_attribute, observed_value) VALUES
  ('Nc1nc2ccc3cc4ccccc4cc3c2s1 [SKA-20, Anthra[2,1-d]thiazol-2-ylamine]', 'IC50', '14 µM'),
  ('Nc1nc2ccc(OC(F)(F)F)cc2s1 [Riluzole, reference compound]', 'IC50', '15 µM');

====

# Test Name: Pharmacokinetics in rats
# Format: in vivo
# Particulars: male, Sprague-Dawley, rat, plasma, iv, 10 mg/kg
Measured Attribute: concentration at 1 h (µM)

INSERT INTO assay_data (molecule, measured_attribute, observed_value) VALUES
  ('Nc1nc2c(ccc3ccccc32)s1 [SKA-31, naphtho[1,2-d]thiazol-2-ylamine]', 'concentration at 1 h', 5);

====

# Measured Target: hKv1.5 (Homo sapiens, UniProt P22460)
# Sequence (P22460 whole entry): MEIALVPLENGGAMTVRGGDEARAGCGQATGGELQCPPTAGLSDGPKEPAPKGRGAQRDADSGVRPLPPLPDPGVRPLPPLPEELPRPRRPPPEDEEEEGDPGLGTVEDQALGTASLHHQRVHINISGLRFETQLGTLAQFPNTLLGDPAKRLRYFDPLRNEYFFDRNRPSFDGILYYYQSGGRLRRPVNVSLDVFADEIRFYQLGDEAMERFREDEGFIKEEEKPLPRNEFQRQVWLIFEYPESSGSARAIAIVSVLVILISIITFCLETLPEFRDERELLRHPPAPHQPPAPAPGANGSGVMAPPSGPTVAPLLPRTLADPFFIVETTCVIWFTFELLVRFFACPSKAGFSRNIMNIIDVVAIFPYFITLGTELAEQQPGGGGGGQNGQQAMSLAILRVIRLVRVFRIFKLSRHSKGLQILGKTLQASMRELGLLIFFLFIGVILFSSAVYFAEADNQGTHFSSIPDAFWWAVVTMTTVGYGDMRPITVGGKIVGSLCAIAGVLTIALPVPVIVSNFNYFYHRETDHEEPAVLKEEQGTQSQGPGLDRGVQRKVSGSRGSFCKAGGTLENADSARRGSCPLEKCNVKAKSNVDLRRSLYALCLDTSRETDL
# Test Name: Selectivity patch-clamp, Kv1.5 currents
pIC50: −log10 of the molar value.
Measured Attribute: pIC50

INSERT INTO measurements (compound, measured_target, observed_value) VALUES
  ('Nc1nc2ccc(OC(F)(F)F)cc2s1 [Riluzole, reference compound]', 'hKv1.5 (Homo sapiens, UniProt P22460)', 4.02);

====

# Measured Target: UniProt O15554
# Sequence (O15554 whole entry): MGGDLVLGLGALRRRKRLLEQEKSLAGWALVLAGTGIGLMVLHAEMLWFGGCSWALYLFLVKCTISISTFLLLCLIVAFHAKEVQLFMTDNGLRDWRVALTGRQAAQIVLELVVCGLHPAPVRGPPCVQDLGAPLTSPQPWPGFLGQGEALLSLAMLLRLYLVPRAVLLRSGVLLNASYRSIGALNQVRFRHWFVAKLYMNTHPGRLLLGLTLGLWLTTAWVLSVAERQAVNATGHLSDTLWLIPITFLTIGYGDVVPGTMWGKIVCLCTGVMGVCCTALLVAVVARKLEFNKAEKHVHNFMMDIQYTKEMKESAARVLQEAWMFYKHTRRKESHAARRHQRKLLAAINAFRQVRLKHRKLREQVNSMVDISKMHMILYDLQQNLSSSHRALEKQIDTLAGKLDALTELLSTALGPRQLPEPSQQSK
# Test Name: Whole-cell patch-clamp of KCa3.1 currents
pEC50: −log10 of the molar value.
Measured Attribute: pEC50

INSERT INTO results (compound, measured_target, observed_value) VALUES
  ('Nc1nc2ccc3cc4ccccc4cc3c2s1 [SKA-20, Anthra[2,1-d]thiazol-2-ylamine]', 'UniProt O15554', 6.94),
  ('Nc1nc2ccc(OC(F)(F)F)cc2s1 [Riluzole, reference compound]', 'UniProt O15554', 5.72);

====

# Measured Target: hKCa2.1 (Homo sapiens, UniProt Q92952)
# Sequence (Q92952 whole entry): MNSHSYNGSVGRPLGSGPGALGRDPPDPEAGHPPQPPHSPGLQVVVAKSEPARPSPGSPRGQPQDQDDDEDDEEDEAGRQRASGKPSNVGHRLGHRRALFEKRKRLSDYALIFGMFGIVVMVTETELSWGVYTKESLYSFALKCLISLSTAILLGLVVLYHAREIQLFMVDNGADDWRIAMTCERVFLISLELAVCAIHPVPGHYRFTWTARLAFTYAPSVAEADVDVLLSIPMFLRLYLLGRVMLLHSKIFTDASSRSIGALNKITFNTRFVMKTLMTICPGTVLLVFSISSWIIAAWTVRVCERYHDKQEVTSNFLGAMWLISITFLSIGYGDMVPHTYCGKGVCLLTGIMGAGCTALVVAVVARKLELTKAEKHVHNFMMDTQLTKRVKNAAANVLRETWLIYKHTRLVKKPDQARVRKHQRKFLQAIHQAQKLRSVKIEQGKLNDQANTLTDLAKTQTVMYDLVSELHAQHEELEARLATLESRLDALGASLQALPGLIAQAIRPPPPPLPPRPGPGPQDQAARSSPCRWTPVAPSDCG
# Test Name: Whole-cell patch-clamp of KCa2.1 currents
pEC50: −log10 of the molar value.
Measured Attribute: pEC50

INSERT INTO results (compound, measured_attribute, observed_value) VALUES
  ('Nc1nc2ccc(OC(F)(F)F)cc2s1 [Riluzole, reference compound]', 'pEC50', 4.68),
  ('Nc1nc2ccc3cc4ccccc4cc3c2s1 [SKA-20, Anthra[2,1-d]thiazol-2-ylamine]', 'pEC50', 6.37);

====

# Test Name: logP
# Assay type: physicochemical
This listing pairs molecules with measured logP.
Measured Attribute: logP

INSERT INTO measurements (molecule, observed_value) VALUES
  ('Nc1nc2ccc3cc4ccccc4cc3c2s1 [SKA-20, Anthra[2,1-d]thiazol-2-ylamine]', 3.1),
  ('Nc1nc2c(ccc3ccccc32)s1 [SKA-31, naphtho[1,2-d]thiazol-2-ylamine]', 2.2);

====

# Measured Target: mKv1.1 (Mus musculus)
# Test Name: Selectivity patch-clamp, Kv1.1 currents
Measured Attribute: IC50 (µM)

INSERT INTO measurements (compound, measured_target, observed_value) VALUES
  ('Nc1nc2ccc(OC(F)(F)F)cc2s1 [Riluzole, reference compound]', 'mKv1.1 (Mus musculus)', 92);

====

# Test Name: Pharmacokinetics in rats
# Format: in vivo
# Particulars: male, Sprague-Dawley, rat, plasma, ip, 30 mg/kg
Measured Attribute: Tmax (h)

INSERT INTO measurements (compound, observed_value) VALUES
  ('Nc1nc2c(ccc3ccccc32)s1 [SKA-31, naphtho[1,2-d]thiazol-2-ylamine]', 2);

====

# Test Name: Plasma protein binding by ultrafiltration
# Type: in vitro ADME, rat
# Particulars: rat, plasma
Measured Attribute: fraction unbound at 15 min, 10 μM

INSERT INTO assay_data (compound, measured_attribute, observed_value) VALUES
  ('Nc1nc2c(ccc3ccccc32)s1 [SKA-31, naphtho[1,2-d]thiazol-2-ylamine]', 'fraction unbound at 15 min, 10 μM', 0.61);

====

# Measured Target: hKCa2.3 (Homo sapiens)
# Sequence (Q9UGI6 whole entry): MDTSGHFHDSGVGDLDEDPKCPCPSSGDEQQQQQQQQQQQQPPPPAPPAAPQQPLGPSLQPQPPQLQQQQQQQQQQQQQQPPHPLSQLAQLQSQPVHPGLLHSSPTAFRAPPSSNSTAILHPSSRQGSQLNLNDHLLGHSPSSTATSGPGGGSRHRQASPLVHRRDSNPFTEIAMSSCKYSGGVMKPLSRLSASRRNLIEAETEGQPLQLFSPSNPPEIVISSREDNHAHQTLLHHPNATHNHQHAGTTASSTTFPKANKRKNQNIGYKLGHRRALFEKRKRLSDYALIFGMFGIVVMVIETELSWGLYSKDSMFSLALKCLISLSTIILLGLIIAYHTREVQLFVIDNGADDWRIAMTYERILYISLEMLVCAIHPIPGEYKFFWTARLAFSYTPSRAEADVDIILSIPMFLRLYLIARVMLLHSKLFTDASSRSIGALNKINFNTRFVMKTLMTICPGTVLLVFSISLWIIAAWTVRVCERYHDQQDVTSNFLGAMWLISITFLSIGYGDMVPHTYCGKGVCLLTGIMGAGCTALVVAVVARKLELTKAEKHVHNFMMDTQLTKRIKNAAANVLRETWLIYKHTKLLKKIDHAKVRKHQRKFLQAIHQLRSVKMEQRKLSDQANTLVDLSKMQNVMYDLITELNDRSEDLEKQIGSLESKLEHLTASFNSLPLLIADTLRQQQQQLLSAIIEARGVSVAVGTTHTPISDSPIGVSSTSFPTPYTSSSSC
# Test Name: Whole-cell patch-clamp of KCa2.3 currents
# Particulars: read-out: EC50 KCa2.3 activation; 250 nM [Ca2+]i
pEC50: −log10 of the molar value.
Measured Attribute: pEC50

INSERT INTO results (compound, observed_value) VALUES
  ('Nc1nc2ccc3cc4ccccc4cc3c2s1 [SKA-20, Anthra[2,1-d]thiazol-2-ylamine]', 5.92);

====

# Measured Target: hKCa2.3 (Homo sapiens)
# Test Name: Whole-cell patch-clamp of KCa2.3 currents
# Format: cell-based
# Particulars: read-out: IC50 inhibition of KCa2.3 currents; absence of SKA-31
Measured Attribute: IC50 (nM)

INSERT INTO assay_data (sample_smiles, measured_target, observed_value) VALUES
  ('Cl.c1ccc2c(c1)CCC[C@H]2Nc1nc2ccccc2[nH]1', 'hKCa2.3 (Homo sapiens)', 700);

====

# Test Name: Pharmacokinetics in rats
# Assay type: in vivo
# Particulars: male, Sprague-Dawley, rat, plasma, iv, 10 mg/kg
Measured Attribute: concentration at 24 h (nM)

INSERT INTO assay_data (compound, observed_value) VALUES
  ('Nc1nc2c(ccc3ccccc32)s1 [SKA-31, naphtho[1,2-d]thiazol-2-ylamine]', 2500);

====

Recorded pEC50 values for a group of compounds are listed next.
# Measured Target: rKCa2.2 (Rattus norvegicus)
# Sequence (P70604 whole entry): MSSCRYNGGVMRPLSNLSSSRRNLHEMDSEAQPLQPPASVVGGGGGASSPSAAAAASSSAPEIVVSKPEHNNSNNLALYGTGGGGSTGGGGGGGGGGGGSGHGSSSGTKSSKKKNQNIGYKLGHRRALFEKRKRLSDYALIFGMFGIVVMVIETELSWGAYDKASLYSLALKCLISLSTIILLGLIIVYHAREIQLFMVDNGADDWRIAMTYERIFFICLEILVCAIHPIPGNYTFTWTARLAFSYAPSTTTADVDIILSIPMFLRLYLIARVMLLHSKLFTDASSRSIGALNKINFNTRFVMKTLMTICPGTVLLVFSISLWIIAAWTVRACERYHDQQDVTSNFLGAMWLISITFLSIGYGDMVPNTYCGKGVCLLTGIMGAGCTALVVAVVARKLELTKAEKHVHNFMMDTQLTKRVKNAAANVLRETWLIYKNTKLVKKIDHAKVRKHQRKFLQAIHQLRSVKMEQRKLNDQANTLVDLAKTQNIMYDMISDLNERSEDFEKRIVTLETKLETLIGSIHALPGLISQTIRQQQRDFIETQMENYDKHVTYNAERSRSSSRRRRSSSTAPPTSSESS
# Test Name: Whole-cell patch-clamp of KCa2.2 currents
pEC50: −log10 of the molar value.
Measured Attribute: pEC50

INSERT INTO assay_data (compound, measured_attribute, observed_value) VALUES
  ('Nc1nc2ccc(OC(F)(F)F)cc2s1 [Riluzole, reference compound]', 'pEC50', 4.89),
  ('Nc1nc2ccc3cc4ccccc4cc3c2s1 [SKA-20, Anthra[2,1-d]thiazol-2-ylamine]', 'pEC50', 5.72);

====

# Measured Target: hKCa2.3 (Homo sapiens)
# Test Name: Whole-cell patch-clamp of KCa2.3 currents
# Assay type: cell-based
# Particulars: read-out: IC50 blockade of hKCa2.3 currents; currents activated with 10 μM SKA-31; 250 nM free Ca2+
Positions of bridges follow the written chain, without caps; N, C: chain ends. No end group written: not given here.
Measured Attribute: IC50

INSERT INTO measurements (substance, observed_value) VALUES
  ('apamin (CNCKAPETALCARRCQQH-NH2; disulfide 1-11, 3-15; ends not checked; UniProt P01500 28-45, looked up)', '~1 nM');
